Biological target: canine IL-4RA (construct not given) (canine)
Test: SPR, IL-4RA immobilised, periplasmic Fab
Consider the following binders and their measured RU max readings.
Only the number, expressed in RU, is required.

What does the data say about its RU max? Entry: FJ2246MP05G01 (Fab, V domains shown) VH: EVQLVESGGDLVKPGGSLRLSCVASGFPFRDFAMTWVRQAPGKGLQWVSLISGSGGKTYYADAVKGRFTISRDNAKNTLYLQMNSLRAEDTAVYYCAVDRLTKTIRPQYYGLWVWGQGTLVTVSS VL: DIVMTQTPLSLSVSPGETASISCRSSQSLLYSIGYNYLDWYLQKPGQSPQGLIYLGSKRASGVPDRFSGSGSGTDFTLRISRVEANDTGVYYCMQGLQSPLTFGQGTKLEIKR
344

What does the data say about its RU max? Entry: FJ2246MP10A10 (Fab, V domains shown) VH: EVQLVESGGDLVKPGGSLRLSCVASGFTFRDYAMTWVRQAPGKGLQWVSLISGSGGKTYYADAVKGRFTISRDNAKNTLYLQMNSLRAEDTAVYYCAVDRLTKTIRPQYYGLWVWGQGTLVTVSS VL: DIVMTQTPLSLSVSPGETASISCRSSQSLLYSIGYNYLDWYLQKPGQSPQGLIYLGSKRASGVPDRFSGSGSGTDFTLRISRVEAEDTGVYYCMQGLHSPLTFGQGTKLEIK
369

What does the data say about its RU max? Entry: FJ2246MP07H09 (Fab, V domains shown) VH: EVQLVESGGDLVKPGGSLRLSCVASGFTFRDYAMTWVRQAPGKGLQWVSLINGSGGKTYYADAVKGRFTISRDNAKNTLYLQMNSLRAEDTAVYYCAVDRLTKTIRPQYYGLWSWGQGTLVTVSS VL: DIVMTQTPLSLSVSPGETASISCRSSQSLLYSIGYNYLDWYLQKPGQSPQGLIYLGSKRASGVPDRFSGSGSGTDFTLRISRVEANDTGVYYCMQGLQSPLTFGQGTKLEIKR
509

What does the data say about its RU max? Entry: FJ2246MP06F01 (Fab, V domains shown) VH: EVQLVESGGDLVKPGGSLRLSCVASGFTFRDYAMTWVRQAPGKGLQWVSLINGSGTKTYYADAVKGRFTISRDNAKNTLYLQMNSLRAEDTAVYYCAVDRLTKTIRPQYYGLWVWGQGTLVTVSS VL: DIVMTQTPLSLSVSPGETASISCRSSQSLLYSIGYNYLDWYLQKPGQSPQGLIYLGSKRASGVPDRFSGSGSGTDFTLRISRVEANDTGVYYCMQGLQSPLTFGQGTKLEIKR
199

Now let's try a different one.
What does the data say about its RU max? Entry: FJ2246MP10B12 (Fab, V domains shown) VH: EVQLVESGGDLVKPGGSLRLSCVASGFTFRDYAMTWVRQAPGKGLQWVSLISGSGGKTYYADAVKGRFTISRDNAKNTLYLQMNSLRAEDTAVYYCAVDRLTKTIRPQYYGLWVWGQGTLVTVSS VL: DIVMTQTPLSLSVSPGETASISCRSSQSLLYSIGYNYLDWYLQKPGQSPQGLIYLGSKRASGVPDRFSGSGNGTDFTLRISRVEAEDTGVYYCMQGLHSPLSFGQGTKLEIK
304
